assayComment: Inhibition of Bordetella pertussis ACT exposed to mouse J774.A1 cells assessed as inhibition of ACT-induced cAMP accumulation cells pretreated for 5 hrs measured after 30 mins followed by enzyme addition by immunoassay
Assay type: cell-based
measuredProperty: pIC50
In plain terms, pIC50 is the concentration in mol/L turned into minus its base-10 logarithm.

Reported pIC50 for COc1ccc(-c2sc(N)nc2CCOCP(=O)(N[C@@H](Cc2ccccc2)C(=O)OC(C)C)N[C@@H](Cc2ccccc2)C(=O)OC(C)C)c(C)c1 : what is it?
5.94

Reported pIC50 for CC(C)OC(=O)[C@H](Cc1ccccc1)NP(=O)(COCCc1nc(N)sc1-c1cccc(OC(C)C)c1)N[C@@H](Cc1ccccc1)C(=O)OC(C)C : what is it?
5.76

Reported pIC50 for CC(C)OC(=O)[C@H](Cc1ccccc1)NP(=O)(COCc1nc(N)sc1-c1ccccc1)N[C@@H](Cc1ccccc1)C(=O)OC(C)C : what is it?
5.33

Reported pIC50 for COc1cc(OC)cc(-c2sc(N)nc2CCOCP(=O)(N[C@@H](Cc2ccccc2)C(=O)OC(C)C)N[C@@H](Cc2ccccc2)C(=O)OC(C)C)c1 : what is it?
5.84

Reported pIC50 for CC(C)OC(=O)[C@H](Cc1ccccc1)NP(=O)(COCCc1nc(N)sc1Sc1ccccc1)N[C@@H](Cc1ccccc1)C(=O)OC(C)C : what is it?
6.03
